Experiment: Cytotoxicity against human HepG2 cells assessed as cell metabolic activity at 10 uM incubated for 48 hrs by resazurin assay relative to control
Assay type: ADME, cell-based
Details: read-out: Activity
metric.name: viability at 48 h, 10 µM (%)
The figure you give is taken to be in %; do not add the unit.

Query: viability at 48 h, 10 µM for O=C(NCCCCCC[P+](c1ccccc1)(c1ccccc1)c1ccccc1)c1ccc(O)c(O)c1 ?
Result: 97.4

Query: CS(=O)(=O)[O-].O=C(/C=C/c1cc(O)c(O)c(O)c1)NCCCCCC[P+](c1ccccc1)(c1ccccc1)c1ccccc1 ?
Result: 105

* * *

Assay: Cytotoxicity against human SH-SY5Y cells assessed as cell metabolic activity at 10 uM incubated for 24 hrs by MTT assay relative to control
Format: ADME, cell-based
Settings: read-out: Activity
Recorded viability at 24 h, 10 µM values for a group of compounds are listed next.
The figure you give is taken to be in %; do not add the unit.

CS(=O)(=O)[O-].O=C(Cc1ccc(O)c(O)c1)NCCCCCC[P+](c1ccccc1)(c1ccccc1)c1ccccc1 :: 95.3
CS(=O)(=O)[O-].O=C(/C=C/c1cc(O)c(O)c(O)c1)NCCCCCCCCCC[P+](c1ccccc1)(c1ccccc1)c1ccccc1 :: 99
CS(=O)(=O)[O-].O=C(CCc1ccc(O)c(O)c1)NCCCCCC[P+](c1ccccc1)(c1ccccc1)c1ccccc1 :: 93.5
O=C(NCCCCCCCCCC[P+](c1ccccc1)(c1ccccc1)c1ccccc1)c1ccc(O)c(O)c1.[Br-] :: 97.8
O=C(NCCCCCC[P+](c1ccccc1)(c1ccccc1)c1ccccc1)c1ccc(O)c(O)c1 :: 102
O=C(NCCCCCCCCCC[P+](c1ccccc1)(c1ccccc1)c1ccccc1)c1cc(O)c(O)c(O)c1 :: 107
CS(=O)(=O)[O-].O=C(Cc1cc(O)c(O)c(O)c1)NCCCCCCCCCC[P+](c1ccccc1)(c1ccccc1)c1ccccc1 :: 95.2
O=C(NCCCCCC[P+](c1ccccc1)(c1ccccc1)c1ccccc1)c1cc(O)c(O)c(O)c1.[Br-] :: 100

Consider the record given below.
Query: viability at 24 h, 10 µM for CS(=O)(=O)[O-].O=C(/C=C/c1cc(O)c(O)c(O)c1)NCCCCCC[P+](c1ccccc1)(c1ccccc1)c1ccccc1 ?
Result: 104

* * *

Assay: Cytotoxicity against human HepG2 cells assessed as cell metabolic activity at 10 uM incubated for 48 hrs by resazurin assay relative to control
Assay type: ADME, cell-based
Details: read-out: Activity
Recorded viability at 48 h, 10 µM values for a group of compounds are listed next.
Note: state the figure and append the unit.

CS(=O)(=O)[O-].O=C(Cc1cc(O)c(O)c(O)c1)NCCCCCC[P+](c1ccccc1)(c1ccccc1)c1ccccc1 :: 106%
CS(=O)(=O)[O-].O=C(CCc1cc(O)c(O)c(O)c1)NCCCCCC[P+](c1ccccc1)(c1ccccc1)c1ccccc1 :: 113%
Cc1c(C)c2c(c(C)c1O)CCC(C)(C(=O)O)O2 (centres undefined) :: 5.99%

Consider the record given below.
Query: viability at 48 h, 10 µM for CS(=O)(=O)[O-].O=C(CCc1ccc(O)c(O)c1)NCCCCCCCCCC[P+](c1ccccc1)(c1ccccc1)c1ccccc1 ?
Result: 41.8%

* * *

Assay: Electrochemical behavior of the compound assessed as redox potential corrected toward saturated Ag/AgCl reference electrode by cyclic voltammetry
Binary classification by Activity, with 100 mV as an inclusive lower bound for yes (1); all other cases are no (0).

Answered examples (7):
CS(=O)(=O)[O-].O=C(Cc1cc(O)c(O)c(O)c1)NCCCCCCCCCC[P+](c1ccccc1)(c1ccccc1)c1ccccc1 :: no (0)
CS(=O)(=O)[O-].O=C(/C=C/c1cc(O)c(O)c(O)c1)NCCCCCC[P+](c1ccccc1)(c1ccccc1)c1ccccc1 :: no (0)
O=C(O)CCc1ccc(O)c(O)c1 [DIHYDROCAFFEIC ACID] :: yes (1)
O=C(NCCCCCC[P+](c1ccccc1)(c1ccccc1)c1ccccc1)c1cc(O)c(O)c(O)c1.[Br-] :: yes (1)
CS(=O)(=O)[O-].O=C(CCc1cc(O)c(O)c(O)c1)NCCCCCCCCCC[P+](c1ccccc1)(c1ccccc1)c1ccccc1 :: no (0)
O=C(NCCCCCCCCCC[P+](c1ccccc1)(c1ccccc1)c1ccccc1)c1ccc(O)c(O)c1.[Br-] :: yes (1)
O=C(O)/C=C/c1ccc(O)c(O)c1 [CAFFEIC ACID] :: yes (1)

Consider the record given below.
Query: Reported Activity at or above 100 mV? CS(=O)(=O)[O-].O=C(Cc1ccc(O)c(O)c1)NCCCCCC[P+](c1ccccc1)(c1ccccc1)c1ccccc1
Result: yes (1)
